# Test system: SNB-78 CNS
# TEST_METHOD_NOTES: NCI tumour cell line growth inhibition, 48 h
ATTRIBUTE_MEASURED: TGI

(Q) Recorded TGI of O=C(NCCCCCCCCNC(=O)c1cccc2ccccc12)c1cccc2ccccc12 , please.
(A) 48.3 µM

(Q) How about this compound: O=C1C2c3[nH]c4ccccc4c3[C@@H]3CCCCC3C2C(=O)N1c1ccccc1 (stereo partly specified)
(A) 72 µM

(Q) How about this compound: O=C(NO)C(=O)Nc1ccc(Cl)cc1[N+](=O)[O-]
(A) > 100 µM

(Q) How about this compound: COc1cc(/C=C2/C(=O)N(C(=O)c3ccc(Cl)cc3)N=C2C)cc(OC)c1OC
(A) > 100 µM

(Q) How about this compound: OC(c1ccccn1)C1CNc2ccccc21 (stereo unspecified)
(A) > 100 µM

(Q) How about this compound: c1ccc(-c2nnc(-c3nsc4ccccc34)o2)cc1
(A) > 100 µM

---

For each of the molecules below, state its TGI.
# System: HOP-62 NSCLC
# TEST_METHOD_NOTES: NCI tumour cell line growth inhibition, 48 h

(Q) Recorded TGI of Cc1nc(N)sc1C(=O)Nc1cc(C(=O)NCCCN(C)C)n(C)c1 , please.
(A) > 100 µM

(Q) How about this molecule: CNCCCNc1nc2ccccc2c2c(=O)c3cc(Cl)ccc3sc12
(A) 2.44 µM

(Q) How about this molecule: COc1ccc(C(=O)/C=C/c2ccc(OCC(=O)N3CCN(c4ccccc4)CC3)cc2)cc1
(A) > 79.6 µM

(Q) How about this molecule: Cc1nc(Nc2ccc([N+](=O)[O-])cc2)sc1C(/C=C/c1ccc(N(C)C)cc1)=N/NC(=O)c1ccccc1
(A) > 100 µM

(Q) How about this molecule: CN(C)C(=O)Oc1ccc(-c2cn3cc(NC(=O)c4ccccc4)ccc3n2)cc1
(A) > 100 µM

---

# Test system: SK-MEL-28 melanoma
# TEST_METHOD_NOTES: NCI tumour cell line growth inhibition, 48 h
For each of the molecules below, state its GI50.

(Q) Recorded GI50 of O=C1CCc2c(sc3[nH]c(=S)n(Cc4ccccc4)c(=O)c23)C1 , please.
(A) 4.4 µM

(Q) How about this molecule: COc1cnc2c(c1)C(=O)c1c-2n(CCCN2CCCC2)c(=O)c2cc(F)ccc12
(A) 2.49 µM

(Q) How about this molecule: O=C1C(Cl)=C(Nc2cccc(O)c2)C(=O)N1c1ccccc1Cl
(A) 58 µM

(Q) How about this molecule: Nc1nnc(Cn2c(-c3ccccc3)nc3ccc(Br)cc3c2=O)s1
(A) > 100 µM

(Q) How about this molecule: CCCSC1=NC2C(N(CC)C(=O)N2CC)N1/N=C/C=C/c1ccccc1[N+](=O)[O-] (centres undefined)
(A) 6.96 µM

(Q) How about this molecule: CC(=O)[O-].O=C([CH-]C(=O)c1ccccc1)c1ccccc1.O=C([CH-]C(=O)c1ccccc1)c1ccccc1.[Y+3]
(A) 8.34 µM

(Q) How about this molecule: CCOC(=O)Nc1ccc(-c2nc(-c3cccc(OC)c3)c(-c3ccnc(Br)c3)[nH]2)cc1
(A) 2.8 µM

(Q) How about this molecule: CC1=C[S+](c2ccccc2)c2cccc3cc4ccccc4c1c23 (centres undefined)
(A) 0.511 µM

(Q) How about this molecule: CS(=O)(=O)CCNCc1ccc(-c2ccc3ncnc(Nc4ccc(OCc5ccccc5)c(Cl)c4)c3c2)o1
(A) 3.85 µM
